Property Name: log10(IC50) (log10 of the value in µM)
Hi team, quick reminder: these entries are log10 of IC50 (µM).

Query log10(IC50) on Tyrosinase (Agaricus bisporus, UniProt O42713) for CCCCCC[S+]([O-])Cc1cc(=O)c(O)co1 (configuration not stated)
Sequence (O42713 whole entry): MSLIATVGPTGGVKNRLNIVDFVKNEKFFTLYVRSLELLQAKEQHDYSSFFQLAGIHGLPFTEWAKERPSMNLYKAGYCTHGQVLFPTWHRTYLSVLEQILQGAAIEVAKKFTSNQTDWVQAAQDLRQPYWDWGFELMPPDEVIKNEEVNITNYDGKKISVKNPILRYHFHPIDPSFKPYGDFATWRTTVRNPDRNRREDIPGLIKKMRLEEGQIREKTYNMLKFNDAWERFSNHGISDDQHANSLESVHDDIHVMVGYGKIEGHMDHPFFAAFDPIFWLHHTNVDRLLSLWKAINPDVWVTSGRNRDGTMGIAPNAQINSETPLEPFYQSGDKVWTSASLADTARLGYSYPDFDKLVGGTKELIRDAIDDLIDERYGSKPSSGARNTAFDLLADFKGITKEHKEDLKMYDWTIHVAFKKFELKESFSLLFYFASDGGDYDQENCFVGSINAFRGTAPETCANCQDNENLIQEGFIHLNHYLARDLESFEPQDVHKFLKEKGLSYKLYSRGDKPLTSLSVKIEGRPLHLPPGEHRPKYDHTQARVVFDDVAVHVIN
1.87

Query log10(IC50) on Tyrosinase (Agaricus bisporus, UniProt O42713) for CCCCCCCCSCc1cc(=O)c(O)co1
1.66

Query log10(IC50) on Tyrosinase (Agaricus bisporus, UniProt O42713) for CCCCSCc1cc(=O)c(O)co1
0.17

Query log10(IC50) on Tyrosinase (Agaricus bisporus, UniProt O42713) for O=c1cc(CS(=O)(=O)C2CCCCC2)occ1O
1.84

Query log10(IC50) on Tyrosinase (Agaricus bisporus, UniProt O42713) for CCSCc1cc(=O)c(O)co1
0.41

Query log10(IC50) on Tyrosinase (Agaricus bisporus, UniProt O42713) for CCCCCCS(=O)(=O)Cc1cc(=O)c(O)co1
1.69

Query log10(IC50) on Tyrosinase (Agaricus bisporus, UniProt O42713) for CCCCCCCSCc1cc(=O)c(O)co1
0.42

----------
- Test system: RAW264.7
- Test Protocol: cells
- Experimental Parameters: Mus musculus
- Description: Antiinflammatory activity in mouse RAW264.7 cells assessed as inhibition of LPS-induced nitric oxide production treated for 30 mins before LPS challenge measured after 24 hrs by Griess reagent method
Would you kindly list IC50 for each of these compounds?

// IC50 lookup, key: CCCCCCCSCc1cc(=O)c(O)co1
> 100 µM

// IC50 lookup, key: O=c1cc(CSC2CCCCC2)occ1O
56.9 µM

// IC50 lookup, key: CCCCCCSCc1cc(=O)c(O)co1
25.8 µM

// IC50 lookup, key: CCCCCCCCSCc1cc(=O)c(O)co1
> 100 µM

// IC50 lookup, key: CCSCc1cc(=O)c(O)co1
> 100 µM

// IC50 lookup, key: CCCCCS(=O)(=O)Cc1cc(=O)c(O)co1
> 100 µM

// IC50 lookup, key: CCCSCc1cc(=O)c(O)co1
> 100 µM

// IC50 lookup, key: CCCCC[S+]([O-])Cc1cc(=O)c(O)co1 (centres undefined)
> 100 µM

// IC50 lookup, key: CCCCCSCc1cc(=O)c(O)co1
62 µM

// IC50 lookup, key: O=c1cc(CS(=O)(=O)C2CCCCC2)occ1O
> 100 µM

// IC50 lookup, key: CCCCSCc1cc(=O)c(O)co1
> 100 µM

// IC50 lookup, key: CCCCCCS(=O)(=O)Cc1cc(=O)c(O)co1
> 100 µM

// IC50 lookup, key: CCCCCC[S+]([O-])Cc1cc(=O)c(O)co1 (centres undefined)
> 100 µM

// IC50 lookup, key: O=c1cc(C[S+]([O-])C2CCCCC2)occ1O (centres undefined)
> 100 µM
